Data origin: paper PMC8808171

- SYSTEM: TRPC1:C4 (A498) (Homo sapiens, UniProt P48995+Q9UBN4)
- Construct: endogenous in cells; host or cells: A498
- Sequence (Q9UBN4 whole entry): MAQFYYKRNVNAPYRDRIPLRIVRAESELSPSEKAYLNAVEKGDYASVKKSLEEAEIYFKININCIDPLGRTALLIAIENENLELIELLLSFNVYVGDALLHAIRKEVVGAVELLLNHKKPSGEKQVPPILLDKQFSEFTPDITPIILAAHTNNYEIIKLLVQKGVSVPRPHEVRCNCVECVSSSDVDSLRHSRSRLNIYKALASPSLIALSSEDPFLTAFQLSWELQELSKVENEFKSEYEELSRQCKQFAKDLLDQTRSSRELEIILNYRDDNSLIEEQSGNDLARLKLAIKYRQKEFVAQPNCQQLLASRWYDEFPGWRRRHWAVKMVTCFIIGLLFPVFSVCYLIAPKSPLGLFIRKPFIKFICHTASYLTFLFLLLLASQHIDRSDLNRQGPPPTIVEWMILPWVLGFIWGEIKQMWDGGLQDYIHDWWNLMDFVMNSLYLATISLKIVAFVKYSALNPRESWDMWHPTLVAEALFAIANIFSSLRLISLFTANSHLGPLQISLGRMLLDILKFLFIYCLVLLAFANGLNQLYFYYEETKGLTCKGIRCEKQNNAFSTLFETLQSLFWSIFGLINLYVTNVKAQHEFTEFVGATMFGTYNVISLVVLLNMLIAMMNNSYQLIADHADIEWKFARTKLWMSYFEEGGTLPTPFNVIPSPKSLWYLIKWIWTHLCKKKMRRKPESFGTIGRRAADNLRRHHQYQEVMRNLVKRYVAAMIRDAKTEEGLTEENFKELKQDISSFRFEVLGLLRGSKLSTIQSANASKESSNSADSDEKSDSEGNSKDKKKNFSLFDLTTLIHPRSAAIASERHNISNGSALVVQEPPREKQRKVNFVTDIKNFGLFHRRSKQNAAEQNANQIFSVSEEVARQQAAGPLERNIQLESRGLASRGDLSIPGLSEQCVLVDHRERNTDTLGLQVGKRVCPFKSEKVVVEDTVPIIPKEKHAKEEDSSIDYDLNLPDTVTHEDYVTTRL
- Sequence (P48995 whole entry): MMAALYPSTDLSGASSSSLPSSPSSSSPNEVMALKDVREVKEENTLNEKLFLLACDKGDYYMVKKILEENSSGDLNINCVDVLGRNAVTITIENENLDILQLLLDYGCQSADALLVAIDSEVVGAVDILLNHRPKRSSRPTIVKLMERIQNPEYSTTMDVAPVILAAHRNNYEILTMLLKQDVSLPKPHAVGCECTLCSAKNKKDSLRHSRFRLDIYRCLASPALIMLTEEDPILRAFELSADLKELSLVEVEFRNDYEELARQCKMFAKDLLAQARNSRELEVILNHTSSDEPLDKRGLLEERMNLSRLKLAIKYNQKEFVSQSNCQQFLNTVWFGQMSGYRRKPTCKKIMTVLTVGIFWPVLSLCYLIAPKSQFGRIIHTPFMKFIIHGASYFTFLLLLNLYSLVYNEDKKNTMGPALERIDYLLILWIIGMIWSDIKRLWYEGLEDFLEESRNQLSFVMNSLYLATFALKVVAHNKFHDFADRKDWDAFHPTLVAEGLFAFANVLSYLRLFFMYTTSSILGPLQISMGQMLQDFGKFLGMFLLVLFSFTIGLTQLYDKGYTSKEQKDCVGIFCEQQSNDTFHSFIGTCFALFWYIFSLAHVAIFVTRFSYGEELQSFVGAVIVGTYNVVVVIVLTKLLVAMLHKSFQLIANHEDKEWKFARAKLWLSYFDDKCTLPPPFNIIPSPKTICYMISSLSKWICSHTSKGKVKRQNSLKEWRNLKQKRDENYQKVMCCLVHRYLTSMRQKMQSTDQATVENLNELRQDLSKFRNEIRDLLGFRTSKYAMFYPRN
- PROTOCOL SUMMARY: [Ca2+]i recordings (Fura-2), endogenous TRPC1:C4 channels in A498 cells
- Format: cell-based
- EXPERIMENTAL CONTEXT: A498 cells; activator EA (100 nM)
MEASUREMENT NAME: IC50 (µM)
The answer is to be given in µM; state only the numeric part.

Asked: State, in one line, measured IC50 of c1ccc(Cn2c(NCc3ccco3)nc3ccccc32)cc1
Given back: 3.4

----------
- SYSTEM: TRPC6:C6 (Homo sapiens, UniProt Q9Y210)
- Sequence (Q9Y210 1-931): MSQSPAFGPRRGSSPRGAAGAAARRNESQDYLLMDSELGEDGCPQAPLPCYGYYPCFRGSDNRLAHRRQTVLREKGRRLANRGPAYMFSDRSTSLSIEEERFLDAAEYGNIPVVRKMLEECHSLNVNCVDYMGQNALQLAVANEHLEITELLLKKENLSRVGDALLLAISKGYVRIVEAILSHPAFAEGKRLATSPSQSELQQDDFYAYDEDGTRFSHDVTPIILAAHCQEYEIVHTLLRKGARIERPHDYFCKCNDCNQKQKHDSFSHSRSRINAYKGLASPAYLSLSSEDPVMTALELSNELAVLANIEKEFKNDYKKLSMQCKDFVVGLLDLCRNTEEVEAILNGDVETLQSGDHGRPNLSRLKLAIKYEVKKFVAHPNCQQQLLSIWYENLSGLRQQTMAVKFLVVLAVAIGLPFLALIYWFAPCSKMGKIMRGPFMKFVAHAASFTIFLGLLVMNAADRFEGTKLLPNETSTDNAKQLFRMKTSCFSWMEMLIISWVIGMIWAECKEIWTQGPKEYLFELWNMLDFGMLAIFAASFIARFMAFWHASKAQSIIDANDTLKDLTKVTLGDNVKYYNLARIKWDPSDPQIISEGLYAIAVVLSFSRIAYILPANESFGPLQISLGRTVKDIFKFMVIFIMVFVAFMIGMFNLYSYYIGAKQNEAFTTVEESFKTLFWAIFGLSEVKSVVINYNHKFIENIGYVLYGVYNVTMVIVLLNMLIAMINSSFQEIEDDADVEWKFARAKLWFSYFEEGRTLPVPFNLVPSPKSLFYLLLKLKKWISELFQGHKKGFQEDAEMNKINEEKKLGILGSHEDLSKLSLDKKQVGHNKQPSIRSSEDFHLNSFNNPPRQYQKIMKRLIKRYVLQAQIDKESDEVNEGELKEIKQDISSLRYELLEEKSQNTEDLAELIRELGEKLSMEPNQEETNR
- PROTOCOL SUMMARY: [Ca2+]i recordings (Fura-2), TRPC6:C6 in HEK 293 cells
- EXPERIMENTAL CONTEXT: HEK 293; activator OAG (100 μM)
MEASUREMENT NAME: pIC50
As a rule, pIC50 stands for the negative log10 of the concentration, concentration in M.

Asked: Using known records, supply pIC50 for c1ccc(Cn2c(NCc3ccco3)nc3ccccc32)cc1
Given back: 4.82
